Value source: patent US20060257938A1

- Assay notes: Probe fluorescence ratio response to arachidonic acid relative to ADIFAB2
- Type: binding
- Condition: Table 3; Arachidonic acid
Param label: returns Condition met when DR/DRAD2 AA < 1, returns Condition not met otherwise, including exact equality.

Data request: For L78F, L72A: FABP probe clone, substitutions L78F, L72A vs SEQ ID NO: 2 (protein, listed as Rattus norvegicus, PEPTIDE (1)...(131) wild-type rat intestinal fatty acid binding protein) AFDGTWKVDRNENYEKFMEKMGINVVKRKLGAHDNLKLTITQEGNKFTVKESSNFRNIDVVFELGVDFAYSAADGTEFTGTWTMEGNKLVGKFKRVDNGKELIAVREISGNELIQTYTYEGVEAKRIFKKE , is the recorded DR/DRAD2 AA below the cut-off of 1?
Data returned: Condition not met

Data request: For Y117A, L72A: FABP probe clone, substitutions Y117A, L72A vs SEQ ID NO: 2 (protein, listed as Rattus norvegicus, PEPTIDE (1)...(131) wild-type rat intestinal fatty acid binding protein) AFDGTWKVDRNENYEKFMEKMGINVVKRKLGAHDNLKLTITQEGNKFTVKESSNFRNIDVVFELGVDFAYSAADGTELTGTWTMEGNKLVGKFKRVDNGKELIAVREISGNELIQTATYEGVEAKRIFKKE , is the recorded DR/DRAD2 AA below the cut-off of 1?
Data returned: Condition not met

Data request: For Y117S, L72A: FABP probe clone, substitutions Y117S, L72A vs SEQ ID NO: 2 (protein, listed as Rattus norvegicus, PEPTIDE (1)...(131) wild-type rat intestinal fatty acid binding protein) AFDGTWKVDRNENYEKFMEKMGINVVKRKLGAHDNLKLTITQEGNKFTVKESSNFRNIDVVFELGVDFAYSAADGTELTGTWTMEGNKLVGKFKRVDNGKELIAVREISGNELIQTSTYEGVEAKRIFKKE , is the recorded DR/DRAD2 AA below the cut-off of 1?
Data returned: Condition not met

Data request: For W82F, L72A: FABP probe clone, substitutions W82F, L72A vs SEQ ID NO: 2 (protein, listed as Rattus norvegicus, PEPTIDE (1)...(131) wild-type rat intestinal fatty acid binding protein) AFDGTWKVDRNENYEKFMEKMGINVVKRKLGAHDNLKLTITQEGNKFTVKESSNFRNIDVVFELGVDFAYSAADGTELTGTFTMEGNKLVGKFKRVDNGKELIAVREISGNELIQTYTYEGVEAKRIFKKE , is the recorded DR/DRAD2 AA below the cut-off of 1?
Data returned: Condition met

Data request: For D74F, L72A: FABP probe clone, substitutions D74F, L72A vs SEQ ID NO: 2 (protein, listed as Rattus norvegicus, PEPTIDE (1)...(131) wild-type rat intestinal fatty acid binding protein) AFDGTWKVDRNENYEKFMEKMGINVVKRKLGAHDNLKLTITQEGNKFTVKESSNFRNIDVVFELGVDFAYSAAFGTELTGTWTMEGNKLVGKFKRVDNGKELIAVREISGNELIQTYTYEGVEAKRIFKKE , is the recorded DR/DRAD2 AA below the cut-off of 1?
Data returned: Condition met

Data request: For A73F, L72A: FABP probe clone, substitutions A73F, L72A vs SEQ ID NO: 2 (protein, listed as Rattus norvegicus, PEPTIDE (1)...(131) wild-type rat intestinal fatty acid binding protein) AFDGTWKVDRNENYEKFMEKMGINVVKRKLGAHDNLKLTITQEGNKFTVKESSNFRNIDVVFELGVDFAYSAFDGTELTGTWTMEGNKLVGKFKRVDNGKELIAVREISGNELIQTYTYEGVEAKRIFKKE , is the recorded DR/DRAD2 AA below the cut-off of 1?
Data returned: Condition not met

Data request: For R106W, L72A: FABP probe clone, substitutions R106W, L72A vs SEQ ID NO: 2 (protein, listed as Rattus norvegicus, PEPTIDE (1)...(131) wild-type rat intestinal fatty acid binding protein) AFDGTWKVDRNENYEKFMEKMGINVVKRKLGAHDNLKLTITQEGNKFTVKESSNFRNIDVVFELGVDFAYSAADGTELTGTWTMEGNKLVGKFKRVDNGKELIAVWEISGNELIQTYTYEGVEAKRIFKKE , is the recorded DR/DRAD2 AA below the cut-off of 1?
Data returned: Condition not met
